# Subject of test: PI3K (Homo sapiens)
# Sequence (P42336 whole entry): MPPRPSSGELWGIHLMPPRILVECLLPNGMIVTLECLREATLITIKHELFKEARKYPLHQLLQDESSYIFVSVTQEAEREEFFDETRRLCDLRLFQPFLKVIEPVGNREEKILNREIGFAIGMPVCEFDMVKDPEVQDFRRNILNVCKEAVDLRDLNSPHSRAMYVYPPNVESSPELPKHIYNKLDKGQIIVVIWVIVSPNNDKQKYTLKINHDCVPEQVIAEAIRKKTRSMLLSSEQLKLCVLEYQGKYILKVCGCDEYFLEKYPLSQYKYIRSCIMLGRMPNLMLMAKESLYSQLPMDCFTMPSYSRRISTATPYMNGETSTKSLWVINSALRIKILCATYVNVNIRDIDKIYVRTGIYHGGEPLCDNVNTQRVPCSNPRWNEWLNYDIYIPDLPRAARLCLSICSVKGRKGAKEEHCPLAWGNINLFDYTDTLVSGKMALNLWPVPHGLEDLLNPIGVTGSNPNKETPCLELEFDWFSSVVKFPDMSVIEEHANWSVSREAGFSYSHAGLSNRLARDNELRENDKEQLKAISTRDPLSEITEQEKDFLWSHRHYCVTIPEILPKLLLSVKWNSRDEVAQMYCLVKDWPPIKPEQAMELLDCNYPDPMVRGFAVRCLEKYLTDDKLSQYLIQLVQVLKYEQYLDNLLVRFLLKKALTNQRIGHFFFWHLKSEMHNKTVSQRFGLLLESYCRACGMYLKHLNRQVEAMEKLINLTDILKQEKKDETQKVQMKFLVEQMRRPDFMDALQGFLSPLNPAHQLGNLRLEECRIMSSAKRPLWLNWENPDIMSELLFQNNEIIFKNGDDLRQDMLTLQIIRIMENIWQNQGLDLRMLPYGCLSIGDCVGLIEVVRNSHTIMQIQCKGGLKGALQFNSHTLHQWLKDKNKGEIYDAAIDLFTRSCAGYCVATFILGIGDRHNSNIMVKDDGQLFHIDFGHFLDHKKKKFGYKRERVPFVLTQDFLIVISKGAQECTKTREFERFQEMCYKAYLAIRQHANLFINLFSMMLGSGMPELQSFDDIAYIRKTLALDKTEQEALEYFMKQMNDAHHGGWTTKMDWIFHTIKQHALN
# Sequence (P27986 whole entry partner): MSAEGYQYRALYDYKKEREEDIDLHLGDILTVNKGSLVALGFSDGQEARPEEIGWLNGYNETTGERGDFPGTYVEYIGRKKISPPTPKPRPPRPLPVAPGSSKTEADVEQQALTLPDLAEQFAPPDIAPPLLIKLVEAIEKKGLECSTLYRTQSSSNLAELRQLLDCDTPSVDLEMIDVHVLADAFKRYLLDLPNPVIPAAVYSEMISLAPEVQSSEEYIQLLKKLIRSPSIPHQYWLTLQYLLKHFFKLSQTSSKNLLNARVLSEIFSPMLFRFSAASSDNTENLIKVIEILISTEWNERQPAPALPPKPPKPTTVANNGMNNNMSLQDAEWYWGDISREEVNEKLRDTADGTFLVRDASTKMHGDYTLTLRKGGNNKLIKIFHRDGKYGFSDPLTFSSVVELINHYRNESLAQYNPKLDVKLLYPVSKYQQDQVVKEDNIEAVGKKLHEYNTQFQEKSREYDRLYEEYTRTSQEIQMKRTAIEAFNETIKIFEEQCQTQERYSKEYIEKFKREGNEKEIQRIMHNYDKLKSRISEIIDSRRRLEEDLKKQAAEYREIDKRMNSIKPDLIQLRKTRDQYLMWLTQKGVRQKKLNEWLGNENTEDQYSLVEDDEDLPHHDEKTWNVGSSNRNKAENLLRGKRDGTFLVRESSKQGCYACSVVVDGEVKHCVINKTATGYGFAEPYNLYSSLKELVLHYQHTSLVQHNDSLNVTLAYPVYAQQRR
# Experimental protocol: Fluorescence polarization assay for PI3K
# Format: biochemical
# Run conditions: PI3Kα; read-out: PI3Kα IC50
Observation type: IC50 (nM)
Give bare numbers, in nM.

Here's what some known entries look like.
{"columns": ["Molecule", "Assay result"],
 "data": [
  ["O=C(NCCF)Nc1ccc(-c2nc(N3CCOCC3)c3cnn(C4CCN(C(=O)c5cccnc5)CC4)c3n2)cc1 [Example 303]", 541],
  ["COCCN1CCC(n2ncc3c(N4CCOCC4)nc(-c4ccc5[nH]ccc5c4)nc32)CC1 [Compound 491]", 5000],
  ["CC(c1ccccc1)N1CCC(n2ncc3c(N4CCOCC4)nc(-c4ccc5[nH]ccc5c4)nc32)CC1 (stereo not shown) [Compound 240]", 2670]
]}

Query :: Suppose we examine the molecule COC(=O)Nc1ccc(-c2nc(N3CCOCC3)c3cnn(C4CCN(C(=O)C(F)(F)F)CC4)c3n2)cc1 [Compound 811] ; what IC50 value has been reported?
Result :: 1350

###

Please respond with reported pIC50 for every item in the list.
# System: breast line MDA468
# Experimental protocol: In vitro cell culture growth assay (MTS), MDA468
# Type: cell-based, human
# Run conditions: Homo sapiens, 72 h, MDA468 cells, three days after drug treatment
One number for each entry, as −log10 of the molar value.

{"columns": ["Compound", "Subject of test", "pIC50"],
 "data": [
  ["COc1cccc(C(=O)Nc2ccc(-c3nc(N4CCOCC4)c4cnn(C5CCCCO5)c4n3)cc2)c1 (stereo not shown) [Compound 273]", "breast line MDA468", 4.22],
  ["O=C(Nc1ccc(-c2nc(N3CCOCC3)c3cnn(C4CCN(Cc5cccnc5)CC4)c3n2)cc1)Nc1ccsc1 [Compound 375]", "breast line MDA468", 7.00],
  ["CC(C)(C)OC(=O)N1CCC(n2ncc3c(N4CCOCC4)nc(-c4ccc(NC(=O)NCCF)cc4)nc32)CC1", "breast line MDA468", 6.44],
  ["O=C1Cc2cc(-c3nc(N4CCOCC4)c4cnn(-c5ccccc5)c4n3)ccc2N1", "breast line MDA468", 4.22],
  ["O=C(NO)Nc1ccc(-c2nc(N3CCOCC3)c3cnn(C4CCN(Cc5cccnc5)CC4)c3n2)cc1 [Compound 562]", "breast line MDA468", 5.82]
]}

Lab note: each compound below needs its pIC50 filled in.
1. CNC(=O)Nc1ccc(-c2nc(N3CCOCC3)c3cnn(C4CCN(C(=O)c5cccc(OC)c5)CC4)c3n2)cc1 [Compound 610]
2. O=C(Nc1ccc(-c2nc(N3CCOCC3)c3cnn(C4CCN(Cc5cccnc5)CC4)c3n2)cc1)Nc1cccs1

Result ::
1. 6.47
2. 7.00

###

# Subject of test: PI3K (Homo sapiens)
# Experimental protocol: Fluorescence polarization assay for PI3K
# Format: biochemical
# Run conditions: PI3Kα; read-out: PI3Kα IC50
Observation type: pIC50
Give bare numbers, as −log10 of the molar value.

{"columns": ["Molecule", "Observation type", "Assay result"],
 "data": [
  ["CCOC(=O)N1CCC(n2ncc3c(N4CCOCC4)nc(-c4ccc(NC(=O)Nc5ccccn5)cc4)nc32)CC1", "pIC50", 5.42],
  ["CNC(=O)Nc1ccc(-c2nc(N3CCOCC3)c3cnn(C4CCN(Cc5ccncc5)CC4)c3n2)cc1 [Compound 426]", "pIC50", 6.95],
  ["Oc1cccc(-c2nc(N3CCOCC3)c3cn[nH]c3n2)c1", "pIC50", 7.59],
  ["CNC(=O)Nc1ccc(-c2nc(N3CCOCC3)c3cnn(C4CCN(Cc5cccc(Cl)c5)CC4)c3n2)cc1 [Example 395]", "pIC50", 7.38],
  ["CNC(=O)Nc1ccc(-c2nc(N3CCOCC3)c3cnn([C@H]4CCCNC4)c3n2)cc1", "pIC50", 7.13]
]}

Lab note: each molecule below needs its pIC50 filled in.
1. O=C(NCc1ccccc1)Nc1ccc(-c2nc(N3CCOCC3)c3cnn(C4CCN(Cc5ccccc5)CC4)c3n2)cc1
2. CCNC(=O)Nc1ccc(-c2nc(N3CCOCC3)c3cnn(C4CCN(C(=O)OC(C)(C)C)CC4)c3n2)cc1

Result ::
6.27
6.13

###

# Tested on: breast line MDA468
# Experimental protocol: In vitro cell culture growth assay (MTS), MDA468
# Format: cell-based, human
# Run conditions: Homo sapiens, 72 h, MDA468 cells, three days after drug treatment
Please respond with reported IC50 for every item in the list.
Answers are plain numbers, in nM.

{"columns": ["Compound", "IC50 (nM)"],
 "data": [
  ["CNC(=O)Nc1ccc(-c2nc(N3CCOCC3)c3cnn(CC(F)(F)F)c3n2)cc1 [Compound 729]", 600]
]}

Lab note: each compound below needs its IC50 filled in.
1. c1ccc(-n2ncc3c(N4CCOCC4)nc(-c4ccc(N5CCOCC5)nc4)nc32)cc1 [Compound 131]
2. NNC(=O)Nc1ccc(-c2nc(N3CCOCC3)c3cnn(-c4ccccc4)c3n2)cc1 [Example 292]

Result ::
60000
8000

Lab note: each compound below needs its IC50 filled in.
1. COC(=O)N1CCC(n2ncc3c(N4CCOCC4)nc(-c4ccc(NC(=O)Nc5ccc(CCNCCN(C)C)cc5)cc4)nc32)CC1 [Compound 919]
2. O=C(Nc1ccc(-c2nc(N3CCOCC3)c3cnn(C4CCNCC4)c3n2)cc1)NC1CC1 [Compound 776]
3. CNC(=O)Nc1ccc(-c2nc(N3CCOCC3)c3cnn(C4CCN(Cc5ccccn5)CC4)c3n2)cc1 [Compound 575]
4. COC(=O)N1CCC(n2ncc3c(N4CCOCC4)nc(-c4ccc5[nH]ccc5c4)nc32)CC1 [Compound 494]
5. c1cc2cc(-c3nc(N4CCOCC4)c4cnn(C5CCC(N6CCCC6)CC5)c4n3)ccc2[nH]1 (centres unmarked) [Compound 151]
6. CN(C)C(=O)Nc1ccc(-c2nc(N3CCOCC3)c3cnn(C4CCN(Cc5ccccc5)CC4)c3n2)cc1 [Compound 205]
7. CNC(=S)Nc1ccc(-c2nc(N3CCOCC3)c3cnn(C4CCN(Cc5cccnc5)CC4)c3n2)cc1 [Example 377]

Result ::
1. 420
2. 1100
3. 500
4. 2050
5. 2300
6. 8000
7. 500

Lab note: each compound below needs its IC50 filled in.
1. CCNC(=O)Nc1cc(F)c(-c2nc(N3CCOCC3)c3cnn(C4CCN(C(=O)c5cccnc5)CC4)c3n2)cc1F [Example 466]
2. CC#CCOC(=O)N1CCC(n2ncc3c(N4CCOCC4)nc(-c4ccc(NC(=O)NC)cc4)nc32)CC1 [Compound 801]
3. COC(=O)N1CCC(n2ncc3c(N4CCOCC4)nc(-c4ccc(NC(=O)Nc5ccc(CCN6CCN(C)CC6)cc5)cc4)nc32)CC1 [Compound 917]
4. CNC(=O)Nc1ccc(-c2nc(N3CCOCC3)c3cnn(C4CCN(Cc5ccc(OC)nc5)CC4)c3n2)cc1 [Example 330]
5. CNC(=O)Nc1ccc(-c2nc(N3CCOCC3)c3cnn(C4CCN(C(=O)c5ccc(F)cc5)CC4)c3n2)cc1 [Compound 607]
6. c1cc2cc(-c3nc(N4CCOCC4)c4cnn(C5CCCCO5)c4n3)ccc2[nH]1 (centres unmarked) [Compound 237]

Result ::
1. 3300
2. 120
3. 60
4. 700
5. 90
6. 1000

Lab note: each compound below needs its IC50 filled in.
1. CC(C)(C)OC(=O)N1CCC(n2ncc3c(N4CCOCC4)nc(-c4ccc(NC(=O)Nc5ccncc5)cc4)nc32)CC1 [Compound 771]
2. CNC(=O)Oc1ccc(-c2nc(N3CCOCC3)c3cnn(C4CCN(C(=O)OC)CC4)c3n2)cc1 [Compound 946]
3. c1ccc(CCN2CCC(n3ncc4c(N5CCOCC5)nc(-c5ccc6[nH]ccc6c5)nc43)CC2)cc1 [Compound 489]
4. CNCCNC(=O)Nc1ccc(-c2nc(N3CCOCC3)c3cnn(C4CCN(C(=O)c5cccnc5)CC4)c3n2)cc1 [Example 346]
5. COC(=O)N1CCC(n2ncc3c(N4CCOC(C)C4)nc(-c4ccc(NC(=O)Nc5ccccc5)cc4)nc32)CC1 (centres unmarked) [Compound 848]
6. CN(C)CCCNC(=O)Nc1ccc(-c2nc(N3CCOCC3)c3cnn(C4CCN(Cc5ccccc5)CC4)c3n2)cc1 [Compound 271]
7. CC(C)(C)OC(=O)N1CCC(n2ncc3c(N4CCOCC4)nc(-c4ccc(NC(=O)NC5CC5)cc4)nc32)CC1 [Compound 767]
8. COC(=O)N1CCC(n2ncc3c(N4CCOCC4)nc(-c4ccc(NC(=O)Nc5ccccc5)cc4)nc32)CC1 [Compound 735]

Result ::
1. 190
2. 7000
3. 3100
4. 9000
5. 720
6. 2000
7. 700
8. 80

###

# Subject of test: PI3K (Homo sapiens)
# Experimental protocol: Fluorescence polarization assay for PI3K;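 also: PI3K kinase reaction on PIP2 with ATP, 30-60 min, product sensed by GST-GRP with red probe in fluorescence polarization (mP), controls without enzyme and at zero time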
# Format: biochemical
# Run conditions: PI3Kα; read-out: PI3Kα IC50
pIC50: −log10 of the molar value.
Use 6 as the dividing line for pIC50, with the line itself on the true side and lower values as false.

Would you please look over these solved cases?
{"columns": ["Compound", "Label"],
 "data": [
  ["O=C(NCCO)Nc1ccc(-c2nc(N3CCOCC3)c3cnn(C4CCNCC4)c3n2)cc1 [Compound 775]", "true"],
  ["CC(C)C(=O)N1CCC(n2ncc3c(N4CCOCC4)nc(-c4ccc(NC(=O)Nc5ccccn5)cc4)nc32)CC1 [Compound 827]", "false"],
  ["COc1cncc(-c2nc(N3CCOCC3)c3cnn(C)c3n2)c1 [Compound 11]", "true"],
  ["C/C=C/C(=O)N1CCC(n2ncc3c(N4CCOCC4)nc(-c4ccc(NC(=O)NC)cc4)nc32)CC1 [Compound 756]", "true"],
  ["CCOC(=O)N1CCC(n2ncc3c(N4CCOCC4)nc(-c4ccc(NC(=O)Nc5cccnc5)cc4)nc32)CC1 [Compound 816]", "true"]
]}

Query :: pIC50 >= 6 for NS(=O)(=O)c1ccc(-c2nc(N3CCOCC3)c3cnn(C4CCN(Cc5ccccc5)CC4)c3n2)cc1 [Compound 85] ?
Result :: false

Query :: Moving on to the next compound: O=C(Nc1ccc(-c2nc(N3CCOCC3)c3cnn(C4CCN(Cc5cccnc5)CC4)c3n2)cc1)Nc1cccnc1 [Compound 559]
Result :: true

Query :: Moving on to the next compound: COC(=O)Nc1ccc(-c2nc(N3CCOCC3)c3cnn(C4CCN(C(=O)c5ccccn5)CC4)c3n2)cc1 [Example 441]
Result :: false

Query :: Moving on to the next compound: CN(C)CC(=O)Nc1ccc(-c2nc(N3CCOCC3)c3cnn(C4CCCCO4)c3n2)cc1 (centres unmarked) [Compound 521]
Result :: false

Query :: Moving on to the next compound: O=C(NCCF)Nc1ccc(-c2nc(N3CCOCC3)c3cnn(C4CCN(C(=O)c5cccnc5)CC4)c3n2)c(F)c1 [Example 463]
Result :: false

Query :: Moving on to the next compound: NC(=O)Nc1ccc(-c2nc(N3CCOCC3)c3cnn(C4CCN(C(=O)c5ccccc5)CC4)c3n2)cc1 [Compound 627]
Result :: true

Query :: Moving on to the next compound: O=C(NCCO)Nc1ccc(-c2nc(N3CCOCC3)c3cnn(C4CCN(Cc5cccnc5)CC4)c3n2)cc1 [Example 316]
Result :: true

Reference for the values: patent US20080234262A1
